Field: CC50 at 48 h. Provide a value for each of the compounds that follow.
testProtocol: Cytotoxicity against human GES-1 cells assessed as cell viability after 48 hrs by MTT assay
Assay type: cell-based, GES1
conditionContext: read-out: LC50

Please review the following examples before continuing.
structureAsSmiles: Cc1ccc(N2C(=O)[C@H](CCCNS(=O)(=O)c3ccc(OC(F)(F)F)cc3)[C@H]2c2ccc([N+](=O)[O-])cc2)cc1
measuredParameter: CC50 at 48 h
result: 56.8 µM
--
structureAsSmiles: Cc1ccc(N2C(=O)[C@H](CCCNS(=O)(=O)c3ccc(OC(F)(F)F)cc3)[C@H]2c2ccc(NS(=O)(=O)c3ccc(C)cc3)cc2)cc1
measuredParameter: CC50 at 48 h
result: > 100 µM

// next entry
Exercise: Tell me its CC50 at 48 h given `CCc1ccc(S(=O)(=O)NCCC[C@H]2C(=O)N(c3ccc(C)cc3)[C@@H]2c2ccc([N+](=O)[O-])cc2)cc1` as the entry.
Solution: > 100 µM

* * *

Field: logP. Provide a value for each of the compounds that follow.
testProtocol: Octanol-water partition coefficient, logP of the compound by HPLC analysis
Assay type: physicochemical

structureAsSmiles: CCc1ccc(S(=O)(=O)NCCC[C@H]2C(=O)N(c3ccc(C)cc3)[C@@H]2c2ccc(NS(=O)(=O)c3ccc(C)cc3)cc2)cc1
logP: 3.4

For each listed entry, give its logP.
1. CCc1ccc(S(=O)(=O)NCCC[C@H]2C(=O)N(c3ccc(C)cc3)[C@@H]2c2ccc(NS(C)(=O)=O)cc2)cc1
2. CCc1ccc(S(=O)(=O)NCCC[C@H]2C(=O)N(c3ccc(C)cc3)[C@@H]2c2ccc([N+](=O)[O-])cc2)cc1

Solution:
1: 3.4; 2: ≥ 4.4

Exercise: Tell me its logP given `Cc1ccc(N2C(=O)[C@H](CCCNS(=O)(=O)c3ccc(OC(F)(F)F)cc3)[C@H]2c2ccc([N+](=O)[O-])cc2)cc1` as the entry.
Solution: ≥ 4.4

* * *

systemName: NPC1-like intracellular cholesterol transporter 1 (Homo sapiens) (UniProt Q9UHC9)
Sequence (Q9UHC9 whole entry): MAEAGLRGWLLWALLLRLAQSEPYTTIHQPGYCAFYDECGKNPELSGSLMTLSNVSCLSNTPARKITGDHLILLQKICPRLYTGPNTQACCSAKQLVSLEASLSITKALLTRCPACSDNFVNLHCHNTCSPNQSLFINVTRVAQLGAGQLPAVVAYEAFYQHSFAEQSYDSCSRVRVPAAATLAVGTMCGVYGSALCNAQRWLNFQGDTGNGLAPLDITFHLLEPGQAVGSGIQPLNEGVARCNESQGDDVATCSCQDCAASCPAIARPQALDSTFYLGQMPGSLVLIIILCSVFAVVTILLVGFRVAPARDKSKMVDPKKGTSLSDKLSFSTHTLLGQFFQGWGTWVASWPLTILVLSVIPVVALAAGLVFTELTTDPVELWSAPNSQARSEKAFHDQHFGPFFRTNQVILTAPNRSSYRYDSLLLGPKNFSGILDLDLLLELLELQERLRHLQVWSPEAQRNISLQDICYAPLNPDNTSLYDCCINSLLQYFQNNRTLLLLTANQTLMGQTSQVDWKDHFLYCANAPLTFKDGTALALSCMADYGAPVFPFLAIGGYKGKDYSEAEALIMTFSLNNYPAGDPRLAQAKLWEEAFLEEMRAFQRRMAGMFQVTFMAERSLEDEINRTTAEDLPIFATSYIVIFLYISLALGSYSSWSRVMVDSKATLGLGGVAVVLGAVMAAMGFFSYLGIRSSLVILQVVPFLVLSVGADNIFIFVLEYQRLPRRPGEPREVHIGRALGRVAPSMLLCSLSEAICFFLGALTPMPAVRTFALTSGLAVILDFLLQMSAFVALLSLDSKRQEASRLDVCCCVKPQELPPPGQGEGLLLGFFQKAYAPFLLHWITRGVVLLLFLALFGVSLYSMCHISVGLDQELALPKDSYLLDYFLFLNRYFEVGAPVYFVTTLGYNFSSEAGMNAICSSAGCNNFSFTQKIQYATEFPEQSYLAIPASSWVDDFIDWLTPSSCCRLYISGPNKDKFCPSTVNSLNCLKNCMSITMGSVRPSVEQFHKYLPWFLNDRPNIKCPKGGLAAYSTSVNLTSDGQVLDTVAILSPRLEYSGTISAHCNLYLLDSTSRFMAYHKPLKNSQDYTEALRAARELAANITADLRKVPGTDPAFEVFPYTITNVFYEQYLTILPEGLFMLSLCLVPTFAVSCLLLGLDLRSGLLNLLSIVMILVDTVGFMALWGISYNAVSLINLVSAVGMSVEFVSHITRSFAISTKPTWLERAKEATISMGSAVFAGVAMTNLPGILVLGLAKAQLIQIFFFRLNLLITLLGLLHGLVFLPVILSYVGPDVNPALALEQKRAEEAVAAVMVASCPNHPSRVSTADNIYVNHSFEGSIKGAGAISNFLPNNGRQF
testProtocol: Inhibition of niemann pick C1-like protein-1 in human Caco-2 cells assessed as cholesterol uptake at 100 uM after 24 hrs by HPLC analysis
Type: cell-based
Calls of active or inactive are those of the source. No cut-off for these calls is given here.
measuredParameter: inhibition

structureAsSmiles: Cc1ccc(N2C(=O)[C@H](CCCNS(=O)(=O)c3cccs3)[C@H]2c2ccc([N+](=O)[O-])cc2)cc1
inhibition: Active
//
structureAsSmiles: CCc1ccc(S(=O)(=O)NCCC[C@H]2C(=O)N(c3ccc(C)cc3)[C@@H]2c2ccc(NS(C)(=O)=O)cc2)cc1
inhibition: Active
//
structureAsSmiles: O=C1C(c2ccc(O)cc2)=C(c2ccc(F)cc2)C(=O)N1CCCCNS(=O)(=O)c1ccc(C(F)(F)F)cc1
inhibition: Active
//
structureAsSmiles: O=C1C(c2ccc(O)cc2)=C(c2ccc(F)cc2)C(=O)N1CCCCNS(=O)(=O)c1ccc(OC(F)(F)F)cc1
inhibition: Active
//
structureAsSmiles: Cc1ccc(N2C(=O)[C@H](CCCNS(=O)(=O)c3ccc(OC(F)(F)F)cc3)[C@H]2c2ccc(NS(C)(=O)=O)cc2)cc1
inhibition: 41.4%
//
structureAsSmiles: Cc1ccc(N2C(=O)[C@H](CCCNS(=O)(=O)c3ccc(OC(F)(F)F)cc3)[C@H]2c2ccc(NS(=O)(=O)c3ccc(C)cc3)cc2)cc1
inhibition: Active
//
structureAsSmiles: CCc1ccc(S(=O)(=O)NCCC[C@H]2C(=O)N(c3ccc(C)cc3)[C@@H]2c2ccc([N+](=O)[O-])cc2)cc1
inhibition: Active
//
structureAsSmiles: Cc1ccc(N2C(=O)[C@H](CCCNS(=O)(=O)c3ccc(OC(F)(F)F)cc3)[C@H]2c2ccc([N+](=O)[O-])cc2)cc1
inhibition: 47.9%

// next entry
Exercise: Tell me its inhibition given `CCc1ccc(S(=O)(=O)NCCC[C@H]2C(=O)N(c3ccc(C)cc3)[C@@H]2c2ccc(NS(=O)(=O)c3ccc(C)cc3)cc2)cc1` as the entry.
Solution: Active

* * *

testProtocol: Cytotoxicity against human GES-1 cells assessed as cell viability after 48 hrs by MTT assay
Format: cell-based, GES1
conditionContext: read-out: LC50
Field: CC50 at 48 h. Provide a value for each of the compounds that follow.
Give bare numbers, in µM.

structureAsSmiles: O=C1[C@H](CC[C@H](O)c2ccc(F)cc2)[C@@H](c2ccc(O)cc2)N1c1ccc(F)cc1
measuredParameter: CC50 at 48 h
valueUnits: µM
result: 61.3

Exercise: Tell me its CC50 at 48 h given `CCc1ccc(S(=O)(=O)NCCC[C@H]2C(=O)N(c3ccc(C)cc3)[C@@H]2c2ccc(NS(=O)(=O)c3ccc(C)cc3)cc2)cc1` as the entry.
Solution: 92.9

* * *

Field: logP. Provide a value for each of the molecules that follow.
testProtocol: Octanol-water partition coefficient, logP of the compound by HPLC analysis
Assay type: physicochemical
Numbers only.

Please review the following examples before continuing.
structureAsSmiles: O=C1[C@H](CC[C@H](O)c2ccc(F)cc2)[C@@H](c2ccc(O)cc2)N1c1ccc(F)cc1
logP: 3.4

structureAsSmiles: Cc1ccc(N2C(=O)[C@H](CCCNS(=O)(=O)c3ccc(OC(F)(F)F)cc3)[C@H]2c2ccc(NS(C)(=O)=O)cc2)cc1
logP: 3.4

// next entry
Exercise: Tell me its logP given `Cc1ccc(N2C(=O)[C@H](CCCNS(=O)(=O)c3ccc(OC(F)(F)F)cc3)[C@H]2c2ccc(NS(=O)(=O)c3ccc(C)cc3)cc2)cc1` as the entry.
Solution: 3.4

* * *

testProtocol: Cytotoxicity against human HEK293 cells assessed as cell viability after 48 hrs by MTT assay
Assay type: cell-based
conditionContext: read-out: LC50
Field: CC50 at 48 h. Provide a value for each of the compounds that follow.

Please review the following examples before continuing.
structureAsSmiles: Cc1ccc(N2C(=O)[C@H](CCCNS(=O)(=O)c3ccc(OC(F)(F)F)cc3)[C@H]2c2ccc([N+](=O)[O-])cc2)cc1
CC50 at 48 h: > 100 µM
//
structureAsSmiles: CCc1ccc(S(=O)(=O)NCCC[C@H]2C(=O)N(c3ccc(C)cc3)[C@@H]2c2ccc(NS(C)(=O)=O)cc2)cc1
CC50 at 48 h: > 100 µM
//
structureAsSmiles: O=C1[C@H](CC[C@H](O)c2ccc(F)cc2)[C@@H](c2ccc(O)cc2)N1c1ccc(F)cc1
CC50 at 48 h: 54.6 µM
//
structureAsSmiles: CCc1ccc(S(=O)(=O)NCCC[C@H]2C(=O)N(c3ccc(C)cc3)[C@@H]2c2ccc([N+](=O)[O-])cc2)cc1
CC50 at 48 h: > 100 µM
//
structureAsSmiles: Cc1ccc(N2C(=O)[C@H](CCCNS(=O)(=O)c3ccc(OC(F)(F)F)cc3)[C@H]2c2ccc(NS(C)(=O)=O)cc2)cc1
CC50 at 48 h: > 100 µM

For each listed entry, give its CC50 at 48 h.
1. CCc1ccc(S(=O)(=O)NCCC[C@H]2C(=O)N(c3ccc(C)cc3)[C@@H]2c2ccc(NS(=O)(=O)c3ccc(C)cc3)cc2)cc1
2. Cc1ccc(N2C(=O)[C@H](CCCNS(=O)(=O)c3ccc(OC(F)(F)F)cc3)[C@H]2c2ccc(NS(=O)(=O)c3ccc(C)cc3)cc2)cc1

Solution:
1: 42.9 µM; 2: > 100 µM
